# Target or test system: Thromboxane A2 receptor (Homo sapiens, UniProt P21731); also: assay procedure not described here
# Sequence (P21731 whole entry): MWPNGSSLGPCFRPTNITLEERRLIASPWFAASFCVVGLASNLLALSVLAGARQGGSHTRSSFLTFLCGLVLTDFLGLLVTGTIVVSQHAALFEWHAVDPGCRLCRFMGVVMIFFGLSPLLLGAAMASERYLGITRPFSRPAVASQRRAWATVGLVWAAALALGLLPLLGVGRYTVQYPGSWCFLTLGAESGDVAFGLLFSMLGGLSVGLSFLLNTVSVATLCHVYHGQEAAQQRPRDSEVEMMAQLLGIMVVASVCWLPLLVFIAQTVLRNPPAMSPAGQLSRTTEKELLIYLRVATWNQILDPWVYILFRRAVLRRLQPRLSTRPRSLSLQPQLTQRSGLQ
Experimental readout: AC50

Some solved cases for reference:
CN(C)[C@@H]1C(O)=C(C(N)=O)C(=O)[C@@]2(O)C(O)=C3C(=O)c4c(O)ccc(Cl)c4[C@@H](O)[C@H]3C[C@@H]12	> 10 µM
NC[C@H]1O[C@H](O[C@H]2[C@H](O)[C@@H](O[C@H]3O[C@H](CO)[C@@H](O)[C@H](N)[C@H]3O)[C@H](N)C[C@@H]2N)[C@H](O)[C@@H](O)[C@@H]1O	> 10 µM
CCC1(C2=CCCCCC2)C(=O)NC(=O)NC1=O	> 10 µM
C#CC1(OC(N)=O)CCCCC1 [ETHINAMATE]	> 10 µM
COc1c(C)c2c(c(O)c1C/C=C(\C)CCC(=O)OCCN1CCOCC1)C(=O)OC2 [MYCOPHENOLATE MOFETIL]	> 30 µM
COC(=O)[C@H]1[C@@H](OC(=O)c2ccccc2)C[C@@H]2CC[C@H]1N2C	> 30 µM

Req: Fill in the blank: the reported AC50 of `CC(C)c1c(C(=O)Nc2ccccc2)c(-c2ccccc2)c(-c2ccc(F)cc2)n1CC[C@@H](O)C[C@@H](O)CC(=O)O` is ____.
Resp: > 30 µM
